tested on: Noggin (protein binding on small-molecule microarray); test: Noggin binders on small-molecule microarray, primary screen, biochemical, 635/667 nm fluorescence (AID 1095); conditions: 635 nm fluorescence, higher = more signal;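 further: score merges 667 nm feature fluorescence with signal to noise over triplicate slides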
Each entry below carries its reported composite z-score.

[
  {
    "molecule": "COc1ccc(C#Cc2ccc3c(c2)[C@]2(C(=O)N3)[C@H](C(=O)Nc3nc4ccccc4s3)[C@H]3C(=O)O[C@H](c4ccccc4)[C@H](c4ccccc4)N3[C@@H]2c2ccc(OCCO)cc2)cc1",
    "composite z-score": 0.994
  },
  {
    "molecule": "CC(C)C[C@H]1NC(=O)[C@@H](C)NC(=O)[C@@]23C(=O)N[C@@H](Cc4ccccc4)C2[C@H](C)[C@@]2(C)O[C@H]2C3/C=C/C/C=C\\CNC1=O (stereo partly specified)",
    "composite z-score": 0.407
  },
  {
    "molecule": "COCCOC(=O)N1C(=O)[C@@]2(c3cc(C#CC4(O)CCCCCC4)ccc31)[C@H](C(=O)N1CCc3cc(OC)c(OC)cc3C1)[C@H]1C(=O)O[C@H](c3ccccc3)[C@H](c3ccccc3)N1[C@@H]2c1ccc(O)cc1",
    "composite z-score": 1.44
  },
  {
    "molecule": "O=C(NCC(F)(F)F)[C@@H]1c2ccccc2C(=O)N(CC23CC4CC(CC(C4)C2)C3)[C@H]1c1ccc(CO)cc1",
    "composite z-score": 1.14
  },
  {
    "molecule": "CN(C)CCCCNC(=O)[C@H]1C[C@H]2C(=O)NCC(=O)N2[C@H]1c1cccc(OCCO)c1",
    "composite z-score": 0.938
  },
  {
    "molecule": "C=CCC(OC(C)=O)[C@@H]1[C@@H](N(Cc2cc3ccccc3o2)C(=O)c2cccc3ccccc23)c2cc(OCCCO)ccc2N1C(=O)c1ccc2ccccc2c1 (stereo partly specified)",
    "composite z-score": 0.413
  }
]

----------
system: Lefty1; experiment: Lefty1 binders on small-molecule microarrays, primary screen, biochemical, small-molecule microarray, 635/667 nm fluorescence (AID 1139); settings: small-molecule microarray binding, fluorescence 635/667; higher = more signal

[
  {
    "molecule": "CCc1cccc(NC(=O)O[C@H]2[C@H](OC(=O)Nc3ccc4c(c3)OCO4)[C@H](OC(=O)Nc3ccc4c(c3)OCO4)[C@@H](OC)O[C@@H]2CO)c1",
    "composite z-score": 0.478
  },
  {
    "molecule": "CC(C)(C)OC(=O)CC[C@]1(C(N)=O)N=C(c2ccc(OCCCO)cc2)O[C@H]1c1ccccc1CN=[N+]=[N-]",
    "composite z-score": -0.512
  },
  {
    "molecule": "C=CC[C@]1(C(=O)OC)N=C(c2ccc(OCCCO)cc2)O[C@H]1c1ccccc1N=[N+]=[N-]",
    "composite z-score": 1.12
  },
  {
    "molecule": "COC(=O)[C@@H]1N=C(c2ccc(OCCCO)cc2)O[C@@H]1c1ccccc1CN=[N+]=[N-]",
    "composite z-score": -0.119
  },
  {
    "molecule": "COc1ccc(CCNC(=O)[C@@]2(Sc3ccc(C)cc3)CC(=O)N(C(C)C)[C@@H]2c2ccc(CO)cc2)cc1",
    "composite z-score": -0.919
  },
  {
    "molecule": "O=C1NC(=O)C2C1C=CC(C(O)c1cccc(O)c1)N2Nc1ccc(Cl)cc1Cl (stereo unspecified)",
    "composite z-score": -0.317
  },
  {
    "molecule": "CCCCC(O)C1C=CC2C(=O)N(C)C(=O)C2N1Nc1ccccc1 (stereo unspecified)",
    "composite z-score": -0.291
  },
  {
    "molecule": "CN1C(=O)C2C=CC(C(O)c3ccc(-c4ccccc4)s3)N(Nc3ccccc3)C2C1=O (stereo unspecified)",
    "composite z-score": -0.304
  },
  {
    "molecule": "C=CCNC(=O)[C@@H]1[C@H]2C(=O)O[C@H](c3ccccc3)[C@H](c3ccccc3)N2[C@H](c2ccc(O)cc2)[C@@]12C(=O)Nc1ccc(C#CC3(O)CCCCCC3)cc12",
    "composite z-score": 0.304
  },
  {
    "molecule": "COCC(=C=CC[C@@H](O)c1ccc(OCCO)cc1)C[C@@H](O)COCc1ccccc1",
    "composite z-score": 1.01
  },
  {
    "molecule": "NCCCC[C@@H]1NC(=O)[C@H]2C[C@@H](C(=O)O)[C@@H](c3cccc(OCCO)c3)N2C1=O",
    "composite z-score": 1.64
  },
  {
    "molecule": "C#CCN([C@H](/C=C/C1CC1)[C@@H](O)Cc1ccccc1)[C@@H](Cc1ccccc1)C(=O)OC",
    "composite z-score": 0.683
  },
  {
    "molecule": "COc1ccccc1CN1C(=O)c2ccccc2[C@@H](C(=O)NCCCN(C)C)[C@@H]1c1ccc(CO)cc1",
    "composite z-score": 0.409
  },
  {
    "molecule": "[N-]=[N+]=NCc1ccccc1[C@H]1OC(c2ccc(OCCCO)cc2)=N[C@@]1(Cc1ccccc1)C(=O)N1CCOCC1",
    "composite z-score": -0.155
  },
  {
    "molecule": "CC(C)(C)N1CC=CC23O[C@@H]4/C=C\\CCCOC(=O)C4[C@H]2C(=O)N(CCCCCCO)[C@@H]3C1=O (stereo partly specified)",
    "composite z-score": -1.11
  },
  {
    "molecule": "NCCCC[C@@H]1NC(=O)[C@H]2C[C@@H](C(=O)NCc3ccc(F)cc3)[C@@H](c3ccc(O)cc3)N2C1=O",
    "composite z-score": 0.296
  }
]
